Data origin, for the record: patent US12377083B2

List of CC50 at 48 h values.
# test_description: In vitro cytotoxicity assay in HepG2 cells, CCK-8 method
# Type: cell-based
# settings: human
# Method: In vitro cytotoxicity assay for the compounds disclosed herein was performed in HepG2 cells using the CCK-8 method. HepG2 cells (Beina Bio) in the logarithmic growth phase were collected, the concentration of cell suspension was adjusted, and then the cells were plated on a 96-well cell culture plate at 50,000 cells/well. […] Absorbance at OD450 nm was measured for each well on a microplate reader, and CC50 value of each compound was analyzed and calculated.

Recorded CC50 at 48 h, per entry:
molecule | CC50 at 48 h
CN(C(=O)OCc1c(-c2ccc(O[C@H]3CCC[C@H](C(=O)O)C3)cc2)cnn1C)C1CCCC1 (racemic) [Compound 11] | > 200 µM
Cc1nc(-c2coc(C)c2COC(=O)N(C)C2CCCC2)ccc1O[C@H]1CCC[C@H](C(=O)O)C1 (racemic) [Compound 42] | > 200 µM
Cc1noc(-c2ccc(C3(C(=O)O)CC3)cc2)c1NC(=O)O[C@H](C)c1ccccc1 [Compound 3] | > 200 µM

Cc1cnn(-c2ccc(O[C@H]3CCC[C@H](C(=O)O)C3)cc2)c1COC(=O)N(C)C1CCCC1 (racemic) [Compound 30] has a reported CC50 at 48 h of > 200 µM

###

# test_description: In vitro cytotoxicity assay in HepG2 cells, CCK-8 method
# Assay type: cell-based
# settings: human
# Procedure: In vitro cytotoxicity assay for the compounds disclosed herein was performed in HepG2 cells using the CCK-8 method. HepG2 cells (Beina Bio) in the logarithmic growth phase were collected, the concentration of cell suspension was adjusted, and then the cells were plated on a 96-well cell culture plate at 50,000 cells/well. […] Absorbance at OD450 nm was measured for each well on a microplate reader, and CC50 value of each compound was analyzed and calculated.
observation_type: CC50 at 48 h

Observe how each entry below is paired with its result.
molecule | CC50 at 48 h
Cc1nc(-c2c(C#N)nn(C)c2COC(=O)N(C)C2CCCC2)ccc1O[C@@H]1CCC[C@@H](C(=O)O)C1 (racemic) [Compound 58] | > 200 µM
CN(C(=O)OCc1ocnc1-c1ccc(O[C@H]2CCC[C@H](C(=O)O)C2)cn1)C1CCCC1 (racemic) [Compound 14] | > 200 µM

Turning now to a further record.
Recorded result, CN(C(=O)OCc1ocnc1-c1ccc(O[C@H]2CCC[C@H](C(=O)O)C2)c(C(F)(F)F)n1)C1CCCC1 (racemic) [Compound 25] , CC50 at 48 h: > 200 µM

###

# system: hLPAR1 (human lysophosphatidic acid receptor 1) (Homo sapiens, UniProt Q92633)
# Sequence (Q92633 whole entry): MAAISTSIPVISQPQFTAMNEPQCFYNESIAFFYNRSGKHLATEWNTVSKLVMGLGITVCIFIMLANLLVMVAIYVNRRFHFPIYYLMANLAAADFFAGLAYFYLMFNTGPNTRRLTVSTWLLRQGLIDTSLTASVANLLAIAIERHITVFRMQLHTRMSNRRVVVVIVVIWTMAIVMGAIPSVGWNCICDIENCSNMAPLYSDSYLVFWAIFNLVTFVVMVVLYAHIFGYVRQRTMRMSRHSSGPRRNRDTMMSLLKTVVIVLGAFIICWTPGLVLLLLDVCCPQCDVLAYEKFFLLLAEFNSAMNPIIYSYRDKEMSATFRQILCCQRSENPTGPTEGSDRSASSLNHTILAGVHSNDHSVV
# test_description: FLIPR assay of intracellular calcium increase induced by activation of hLPAR1 expressed in CHO-K1 cells
# Assay type: cell-based
# settings: CHO-K1 cells expressing hLPAR1, agonist oleoyl-L-α-lysophosphatidic acid 1 μM; read-out: LPAR1 IC50
observation_type: IC50

Field: example entries. Status: answers known.
compound | system | IC50
Cc1nc(-c2[nH]nc(C)c2COC(=O)N(C)C2CCCC2)ccc1O[C@H]1CCC[C@H](C(=O)O)C1 (racemic) [Compound 53] | hLPAR1 (human lysophosphatidic acid receptor 1) (Homo sapiens, UniProt Q92633) | < 50 nM
Cc1cnn(-c2ccc(O[C@H]3CCC[C@H](C(=O)O)C3)cc2)c1N(C)C(=O)OC1CCCC1 (racemic) [Compound 70] | hLPAR1 (human lysophosphatidic acid receptor 1) (Homo sapiens, UniProt Q92633) | 300 to 10000 nM
Cc1nnc(-c2ccc(O[C@H]3CCC[C@H](C(=O)O)C3)c(C)n2)cc1COC(=O)N(C)C1CCCC1 (racemic) [Compound 49] | hLPAR1 (human lysophosphatidic acid receptor 1) (Homo sapiens, UniProt Q92633) | < 50 nM
CN(Cc1ccccc1)C(=O)OCc1c(-c2ccc(O[C@H]3CCC[C@H](C(=O)O)C3)cc2)cnn1C (racemic) [Compound 2] | hLPAR1 (human lysophosphatidic acid receptor 1) (Homo sapiens, UniProt Q92633) | 300 to 10000 nM
Cc1coc(-c2ccc(O[C@H]3CCC[C@H](C(=O)O)C3)c(C)n2)c1COC(=O)N(C)C1CCCC1 (racemic) [Compound 45] | hLPAR1 (human lysophosphatidic acid receptor 1) (Homo sapiens, UniProt Q92633) | < 50 nM

Entry CN(C(=O)OCc1c(-c2ncc(O[C@H]3CCC[C@H](C(=O)O)C3)cn2)cnn1C)C1CCCC1 (racemic) [Compound 100] , IC50 reported as 300 to 10000 nM
